Values were extracted from patent US10011586B2.

Record form. Attribute: IC50. Fill in for each entry.
TEST SYSTEM: PRS enzyme (Homo sapiens)
Construct: the portion corresponding to PRS in cDNA of EPRS was subcloned; made in house
METHOD SUMMARY: PRS enzyme activity inhibition experiment
Type: biochemical
COND: purified PRS protein subcloned from EPRS cDNA; [3H]proline, 37° C., 5 to 10 minutes, liquid scintillation counter; read-out: PRS IC50
Method: Specifically, the portion corresponding to PRS in cDNA of EPRS was subcloned, and the obtained high-purity PRS protein was purified and used in the experiment. […] The radioactivity was measured using a liquid scintillation counter. % Inhibition and IC50 values of the respective compounds were calculated and analyzed using Microsoft Excel or Sigma Plot 8.0. […]

Entry under test: O=C(C[C@H]1NCCC[C@@H]1O)Cn1cnc2ccc(-c3cccc(F)c3)cc21 [Example 25] . Its IC50 was < 100 nM

# IC50 of O=C(C[C@H]1NCCC[C@@H]1O)Cn1cnc2c(-c3cccc(F)c3)nccc21 [Example 2] = > 500 nM

The measured IC50 associated with O=C(C[C@H]1NCCC[C@@H]1O)Cn1cnc2ncc(-c3cccc(Cl)c3)cc21 [Example 41] reads < 100 nM

Record O=C(C[C@H]1NCCC[C@@H]1O)Cn1cnc2cccc(-c3cccc(Cl)c3)c21 [Example 50] . Reported IC50: 100 to 500 nM

---

System: NCI-H460 cells
METHOD SUMMARY: Cancer cell growth inhibition experiment (MTT assay)
Type: cell-based
COND: Homo sapiens, lung cancer cell line, compounds 48 hours, cell viability by MTT assay
So I've got a bunch of compounds here, and I need their IC50 values.

IC50 measured on O=C(C[C@H]1NCCC[C@@H]1O)Cn1c(CO)nc2ccc(-c3ccc(F)cc3)cc21 [Example 60] = ≥ 10 µM

Form field IC50, entry O=C(C[C@H]1NCCC[C@@H]1O)Cn1cnc2cccc(-c3ccccc3)c21 [Example 48] : ≥ 10 µM

Query Cc1c(-c2cccc(Cl)c2)ccc2c1ncn2CC(=O)C[C@H]1NCCC[C@@H]1O [Example 17] yields IC50 of ≥ 10 µM

---

Record form. Attribute: IC50. Fill in for each entry.
TEST SYSTEM: PRS enzyme (Homo sapiens, UniProt P07814)
Construct: the portion corresponding to PRS in cDNA of EPRS was subcloned; made in house
Sequence (P07814 1007-1512 limits assumed): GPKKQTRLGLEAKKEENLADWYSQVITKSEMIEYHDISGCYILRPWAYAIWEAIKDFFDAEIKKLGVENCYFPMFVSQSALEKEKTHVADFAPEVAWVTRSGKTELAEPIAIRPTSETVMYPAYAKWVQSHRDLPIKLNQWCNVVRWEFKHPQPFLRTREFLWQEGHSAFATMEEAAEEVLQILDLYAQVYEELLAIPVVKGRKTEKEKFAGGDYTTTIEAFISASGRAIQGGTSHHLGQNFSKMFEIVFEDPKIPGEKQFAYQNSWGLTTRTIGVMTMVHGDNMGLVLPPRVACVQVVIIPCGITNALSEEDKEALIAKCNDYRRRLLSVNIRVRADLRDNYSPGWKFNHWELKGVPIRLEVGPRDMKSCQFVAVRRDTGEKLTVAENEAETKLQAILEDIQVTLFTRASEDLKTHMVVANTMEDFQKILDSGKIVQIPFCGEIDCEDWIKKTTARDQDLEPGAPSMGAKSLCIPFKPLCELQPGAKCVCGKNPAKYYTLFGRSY
METHOD SUMMARY: PRS enzyme activity inhibition experiment
Format: biochemical
COND: purified PRS protein subcloned from EPRS cDNA; [3H]proline, 37° C., 5 to 10 minutes, liquid scintillation counter; read-out: PRS IC50

According to the records, this compound O=C(C[C@H]1NCCC[C@@H]1O)Cn1cnc2cccc(-c3ccc(C(F)(F)F)cc3)c21 [Example 54] displays IC50 of 100 to 500 nM

Data point: O=C(C[C@H]1NCCC[C@@H]1O)Cn1cnc2ccc(-c3cccc(C(F)(F)F)c3)cc21 [Example 29] ; IC50 = < 100 nM

Short answer for O=C(C[C@H]1NCCC[C@@H]1O)Cn1cnc2ccc(-c3cccc(F)c3)nc21 [Example 44] : IC50 was < 100 nM

// recorded IC50 for O=C(C[C@H]1NCCC[C@@H]1O)Cn1cnc2ccc(-c3cn[nH]c3)cc21 [Example 37] : < 100 nM

The compound identified as Cc1c(-c2ccccc2Cl)ccc2c1ncn2CC(=O)C[C@H]1NCCC[C@@H]1O [Example 18] registered its IC50 at > 500 nM

Reported IC50 ( Cc1c(-c2cccc(C#N)c2)ccc2c1ncn2CC(=O)C[C@H]1NCCC[C@@H]1O [Example 20] ) = > 500 nM

IC50 measured on O=C(C[C@H]1NCCC[C@@H]1O)Cn1cnc2ccc(-c3cccc(C(F)(F)F)c3)nc21 [Example 47] = < 100 nM

IC50 for N#Cc1cc(Cl)cc(-c2ccc3ncn(CC(=O)C[C@H]4NCCC[C@@H]4O)c3c2)c1 [Example 36] is < 100 nM

Entry under test: O=C(C[C@H]1NCCC[C@@H]1O)Cn1cnc2ccc(-c3ccc(=O)[nH]c3)cc21 [Example 40] . Its IC50 was > 500 nM

IC50 measured on Cc1c(-c2cccc(Cl)c2)ccc2c1ncn2CC(=O)C[C@H]1NCCC[C@@H]1O [Example 17] = 100 to 500 nM

// sample O=C(C[C@H]1NCCC[C@@H]1O)Cn1cnc2ccc(-c3cc(F)cc(Cl)c3)cc21 [Example 32] , its IC50 was < 100 nM

So, O=C(C[C@H]1NCCC[C@@H]1O)Cn1cnc2c(-c3cccc(Cl)c3)nccc21 [Example 3] ? Its IC50 was > 500 nM

Documented IC50 of O=C(C[C@H]1NCCC[C@@H]1O)Cn1cnc2ccc(-c3ccccc3F)nc21 [Example 43] : 100 to 500 nM

For record Cc1c(-c2cccc(C(F)(F)F)c2)ccc2c1ncn2CC(=O)C[C@H]1NCCC[C@@H]1O [Example 21] the listed IC50 is 100 to 500 nM

Measured IC50 of O=C(C[C@H]1NCCC[C@@H]1O)Cn1c(CO)nc2ccc(-c3ccccc3)cc21 [Example 57] : < 100 nM

compound Cc1c(-c2ccc(Cl)cc2)ccc2c1ncn2CC(=O)C[C@H]1NCCC[C@@H]1O [Example 19] , IC50 observed: 100 to 500 nM

Kindly note the recorded IC50 for O=C(C[C@H]1NCCC[C@@H]1O)Cn1cnc2ccc(-c3ccccc3Cl)cc21 [Example 26] , which is < 100 nM
